Biological target: human cathepsin K (UniProt P43236)
Test readout: IC50 (nM)

Reference set (5 entries):
>  <Compound>
N#CC1(NC(=O)[C@@H]2CCCC[C@H]2c2oc(-c3ccc(OC(F)(F)F)cc3)nc2-c2ccc(N3CCS(=O)(=O)CC3)cc2)CC1 [Example 61]

>  <IC50 / nM>
1.36

$$$$
>  <Compound>
N#CC1(NC(=O)[C@@H]2CCCC[C@H]2c2oc(-c3cccnn3)nc2-c2ccc(N3CCS(=O)(=O)CC3)cc2)CC1 [Example 97]

>  <IC50 / nM>
2.83

$$$$
>  <Compound>
N#CC1(NC(=O)[C@@H]2C[C@@H](F)CC[C@H]2c2oc(C(F)(F)C(F)(F)F)nc2-c2ccc(N3CCS(=O)(=O)CC3)cc2)CC1 [Example 42]

>  <IC50 / nM>
2.41

$$$$
>  <Compound>
N#CC1(NC(=O)[C@@H]2CCCC[C@H]2c2oc(-c3ncccc3C(F)(F)F)nc2-c2ccc(N3CCS(=O)(=O)CC3)cc2)CC1 [Example 80]

>  <IC50 / nM>
2.43

$$$$
>  <Compound>
Cc1nc(-c2ccc(N3CCS(=O)(=O)CC3)cc2)c([C@@H]2CCCC[C@H]2C(=O)NC2(C#N)CC2)s1 [Example 54]

>  <IC50 / nM>
2.31

$$$$

I = N#CC(CC(F)(F)F)NC(=O)[C@@H]1CCCC[C@H]1c1oc(-c2ccc(F)cc2)nc1-c1ccc(N2CCS(=O)(=O)CC2)cc1 (single isomer, unassigned) [Example 131]
II = C[C@@H]1CC(F)(F)CC[C@@H]1c1nc(-c2ccc(N3CCS(=O)(=O)CC3)cc2)c([C@@H]2CCCC[C@H]2C(=O)NC2(C#N)CC2)o1 [Example 107]
III = N#CC(NC(=O)[C@@H]1CCCC[C@H]1c1oc(-c2ccc(F)cc2)nc1-c1ccc(N2CCS(=O)(=O)CC2)cc1)C(F)(F)F (mixture of isomers) [Example 149]
IV = N#CC1(NC(=O)[C@@H]2CCCC[C@H]2c2oc(-c3ccncc3F)nc2-c2ccc(N3CCS(=O)(=O)CC3)cc2)CC1 [Example 30]
Give the ascending ranking of the items by reported IC50. Order the labels as requested and give them as your answer.
IV, I, III, II
